Target: Methyl-CpG-binding domain protein 4 (Homo sapiens) (UniProt O95243);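 note: MBD4 activity read as fluorescence at 594 nm from cleavage and release of a quenched duplex DNA oligonucleotide, with APE1 coupled to incise the strand and raise turnover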
Sequence (O95243 whole entry, the tested form may be a part): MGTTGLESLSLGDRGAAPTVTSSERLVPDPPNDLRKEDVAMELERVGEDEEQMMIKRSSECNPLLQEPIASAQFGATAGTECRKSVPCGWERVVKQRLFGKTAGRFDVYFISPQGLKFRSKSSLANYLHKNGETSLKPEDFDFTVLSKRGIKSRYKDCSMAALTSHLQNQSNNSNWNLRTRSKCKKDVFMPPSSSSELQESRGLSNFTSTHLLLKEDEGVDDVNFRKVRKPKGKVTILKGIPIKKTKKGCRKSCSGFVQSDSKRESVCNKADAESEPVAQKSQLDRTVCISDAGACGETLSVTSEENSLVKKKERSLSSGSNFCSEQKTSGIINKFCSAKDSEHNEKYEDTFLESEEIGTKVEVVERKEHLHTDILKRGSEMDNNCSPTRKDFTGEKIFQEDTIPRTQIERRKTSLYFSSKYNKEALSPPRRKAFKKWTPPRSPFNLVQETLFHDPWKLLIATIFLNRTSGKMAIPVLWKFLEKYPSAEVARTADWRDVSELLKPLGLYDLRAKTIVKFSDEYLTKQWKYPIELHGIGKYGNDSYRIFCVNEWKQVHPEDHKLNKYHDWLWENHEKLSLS
Details: Compound Concentration 1.0 uM, Hit No
Description: Inhibition of MBD4 by quantifying inhibition of MBD4-mediated cleavage and dissociation of quenched duplex DNA oligonucleotides, measured as fluorescence at 594 nm. To generate a functional strand incision and increase turn-over this assay is coupled to APE1.
Give inhibition for every item shown.
One number for each entry, in %.

Past entries and their recorded results:
{"columns": ["molecule", "inhibition (%)"],
 "data": [
  ["O=S(=O)(NC1CCC(c2cc(F)ccc2F)(S(=O)(=O)c2ccc(Cl)cc2)CC1)C(F)(F)F (stereo not drawn)", 61.8],
  ["O=C(Nc1ccc(-n2nc(-c3cccnc3)cc2C(F)(F)F)cn1)c1ccc(-c2ccccc2)c(F)c1", 59.3]
]}

Exam item: Recorded inhibition for "Cc1c(Oc2ccc(F)cc2)c(OC(C)C)nn1-c1ccc(C2CC2)cn1" , please?
Marked response: 59
